Ki reference
# assayed system: MAO-A (Homo sapiens (Human), UniProt P21397)
# Sequence (P21397 whole entry): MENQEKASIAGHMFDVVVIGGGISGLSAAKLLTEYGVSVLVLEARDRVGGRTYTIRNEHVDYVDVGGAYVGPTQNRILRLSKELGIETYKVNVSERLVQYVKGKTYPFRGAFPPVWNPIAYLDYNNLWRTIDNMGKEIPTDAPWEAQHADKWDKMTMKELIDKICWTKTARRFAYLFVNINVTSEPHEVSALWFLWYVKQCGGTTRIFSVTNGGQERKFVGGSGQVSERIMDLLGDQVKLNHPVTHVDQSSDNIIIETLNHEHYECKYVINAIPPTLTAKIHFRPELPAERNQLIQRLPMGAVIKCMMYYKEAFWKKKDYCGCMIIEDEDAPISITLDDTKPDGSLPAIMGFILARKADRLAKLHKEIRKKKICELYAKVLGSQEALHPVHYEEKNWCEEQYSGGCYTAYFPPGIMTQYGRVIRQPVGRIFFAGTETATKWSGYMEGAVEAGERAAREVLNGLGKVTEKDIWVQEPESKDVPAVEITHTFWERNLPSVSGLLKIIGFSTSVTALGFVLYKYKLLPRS
# test details: biochemical
Counter-ions that a name gives are not always drawn.

Solved entries:
| molecule | Ki |
| --- | --- |
| N[C@H]1C[C@@H]1c1cnc(-c2cccc(O)c2)s1 (relative stereo) [Example 116, hydrochloride] | 1 to 100 nM |
| N#Cc1cccc(S(=O)(=O)Nc2cccc(-c3ccc([C@H]4C[C@@H]4N)cn3)c2)c1 (relative stereo) [Example 100, hydrochloride] | 100 to 1000 nM |
| COc1ccc(-c2ccc([C@H]3C[C@@H]3N)cn2)cc1 (relative stereo) [Example 10, hydrochloride] | 1000 to 40000 nM |

*Q* Note Ki for the molecule shown: N#Cc1ccc(O)c(-c2ccc([C@H]3C[C@@H]3N)cc2)c1 (relative stereo) [Example 87, hydrochloride]
*A* 100 to 1000 nM

*Q* Write down Ki measured for item N[C@H]1C[C@@H]1c1ccc(-c2cccc(O)c2)s1 (relative stereo) [Example 113, trihydrochloride]
*A* 100 to 1000 nM

*Q* Supply recorded Ki for CS(=O)(=O)Nc1cc(-c2ccc([C@H]3C[C@@H]3N)cc2)ccc1F (relative stereo) [Example 96, hydrochloride] here.
*A* 100 to 1000 nM

*Q* Output Ki of N#Cc1ccc(O)c(-c2ccc([C@H]3C[C@@H]3N)cn2)c1 (relative stereo) [Example 89, hydrochloride]
*A* 100 to 1000 nM

----------
# assayed system: Human recombinant LSD1 protein (Homo sapiens (Human))
# test details: biochemical
pKi: −log10 of the molar value. Counter-ions that a name gives are not always drawn.
observed property: pKi

| compound | pKi |
| --- | --- |
| N[C@H]1C[C@@H]1c1ccc(-c2cc(O)ccc2F)nc1 (relative stereo) [Example 25, hydrochloride] | 7.00 to 9.00 |
| N[C@H]1C[C@@H]1c1ccc(-c2csc3ccccc23)nc1 (relative stereo) [Example 55, hydrochloride] | 6.00 to 7.00 |
| COc1ccc(F)c(-c2ccc([C@H]3C[C@@H]3N)cn2)c1 (relative stereo) [Example 40, hydrochloride] | 6.00 to 7.00 |

*Q* Return pKi (reported value) for this compound: Cc1nc(-c2cccc(C(F)(F)F)c2)ccc1[C@H]1C[C@@H]1N (relative stereo) [Example 80, hydrochloride]
*A* 6.00 to 7.00

*Q* For the compound N[C@H]1C[C@@H]1c1ccc(-c2ccc(O)cc2)nc1 (relative stereo) [Example 16, hydrochloride] , give its reported pKi.
*A* 6.00 to 7.00

*Q* State, in one line, measured pKi of CC(C)S(=O)(=O)Nc1cccc(-c2ccc([C@H]3C[C@@H]3N)cn2)c1 (relative stereo) [Example 65, hydrochloride]
*A* 7.00 to 9.00

*Q* State, in one line, measured pKi of N[C@H]1C[C@@H]1c1ccc(-c2ccc(O)cc2)cc1 (relative stereo) [Example 3, hydrochloride]
*A* 6.00 to 7.00

----------
The reader will find reported pKi values listed item by item below.
# assayed system: Human recombinant LSD1 protein (Homo sapiens (Human))
# test details: biochemical
pKi: −log10 of the molar value. Where a name gives a salt, the structure may show the parent alone.

Answered cases to consult:
| molecule | pKi |
| --- | --- |
| CS(=O)(=O)Nc1cc(-c2ccc([C@H]3C[C@@H]3N)cn2)ccc1F (relative stereo) [Example 97, hydrochloride] | 6.00 to 7.00 |
| N[C@H]1C[C@@H]1c1ccc(-c2cccc(NS(=O)(=O)c3ccccc3)c2)cc1 (relative stereo) [Example 68, hydrochloride] | 7.00 to 9.00 |
| COc1cccc(-c2ccc([C@H]3C[C@@H]3N)cn2)c1F (relative stereo) [Example 41, hydrochloride] | 6.00 to 7.00 |

Switching to the query record.
*Q* Given the molecule N[C@H]1C[C@@H]1c1ccc(-c2ccc3sccc3c2)nc1 (relative stereo) [Example 34, hydrochloride] , write its reported pKi.
*A* 6.00 to 7.00
